The measured values listed here are drawn from paper PMC7156458.

- ASSAY_TARGET: Aβ42 (Homo sapiens, UniProt P05067)
- Sequence (P05067 672-713): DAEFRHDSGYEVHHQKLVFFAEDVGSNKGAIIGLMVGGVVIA
- TEST_DESCRIPTION: Th-T (thioflavin-T) assay of Aβ42 aggregation
- Format: biochemical
- PROTOCOL_CONDITIONS: reading M24; Supplementary Fig. 47 source data
Mark each entry t if its Th-T fluorescence, mean of three wells sits below 3, and f for all others.

- COMPOUND: "C=C1CC[C@H]2[C@]3(C)C[C@H](C=C(C)C)O[C@H]3CC[C@]2(C)[C@@H]1Cc1c(OC)oc(CO)c(C)c1=O"
  ASSIGNED_CLASS: "f"
- COMPOUND: "C=C1CCC2C(C)(CC(=O)C=C(C)C)C(O)CCC2(C)C1Cc1c(OC)oc(CO)c(C)c1=O (stereo not shown)"
  ASSIGNED_CLASS: "t"
- COMPOUND: "C=C1CC[C@H]2[C@]3(C)C[C@@H](C=C(C)C)O[C@H]3CC[C@]2(C)[C@@H]1Cc1c(O)c(C)c(C)oc1=O"
  ASSIGNED_CLASS: "t"
- COMPOUND: "C=C1CCC2C3(C)CC(C=C(C)C)OC3CCC2(C)C1Cc1c(OC)oc(C)c(C)c1=O (stereo not shown)"
  ASSIGNED_CLASS: "f"
- COMPOUND: "CC(C)=CCC/C(C)=C/CC/C(C)=C/CC/C(C)=C/Cc1c(O)c(C)c(C)oc1=O"
  ASSIGNED_CLASS: "t"
- COMPOUND: "C=C1CCC2C(C)(CC(=O)C=C(C)C)C(O)CCC2(C)C1Cc1c(OC)oc(C)c(C)c1=O (stereo not shown)"
  ASSIGNED_CLASS: "f"
- COMPOUND: "C=C1CC[C@@H]2[C@](C)(CC[C@H]3O[C@H](C=C(C)C)C[C@@]23C)[C@@H]1Cc1c(O)c(C)c(C)oc1=O"
  ASSIGNED_CLASS: "t"

###

Property: Th-T assay signal, mean of three wells (Fig. 7a); scope: individual compounds
- ASSAY_TARGET: Aβ42 (Homo sapiens)
- TEST_DESCRIPTION: Th-T (thioflavin-T) assay of Aβ42 aggregation
- Assay type: biochemical
- PROTOCOL_CONDITIONS: column suffix _10; reading M18
ASSAY_READOUT: Th-T assay signal, mean of three wells (Fig. 7a)

- COMPOUND: "C=C1CCC2C(C)(CCC=C(C)C)C(O)CCC2(C)C1Cc1c(OC)oc(CO)c(C(=O)OC)c1=O (centres unmarked)"
  NUMERIC_READOUT: 0.231
- COMPOUND: "C=C1CCC2C(C)(CCC=C(C)C)C(O)CCC2(C)C1Cc1c(OC)oc(C)c(C(=O)OC)c1=O (centres unmarked)"
  NUMERIC_READOUT: 1.846
- COMPOUND: "C=C1CC[C@@H]2[C@](C)(CC[C@H]3O[C@H](C=C(C)C)C[C@@]23C)[C@@H]1Cc1c(OC)oc(CO)c(C)c1=O"
  NUMERIC_READOUT: 3.206
- COMPOUND: "C=C1CCC2C(C)(CCC=C(C)C)C(O)CCC2(C)C1Cc1c(OC)oc(CO)c(C)c1=O (centres unmarked)"
  NUMERIC_READOUT: 2.511
- COMPOUND: "C=C1CC[C@@H]2[C@](C)(CC[C@H]3O[C@H](C=C(C)C)C[C@@]23C)[C@@H]1Cc1c(OC)oc(CO)c(C(=O)OC)c1=O"
  NUMERIC_READOUT: 0.2253
